tested on: M19-MEL melanoma; assay: NCI tumour cell line growth inhibition, 48 h
The following compounds are shown together with reported TGI values.

Documented TGI of COCOCC[C@@H]1CC=CC(NC(=O)OCc2ccccc2)C1/C=C/C(=O)CCC1OCCO1 (stereo not given in full) : 43.3 µM

Documented TGI of CC(=O)N/C(=C\c1ccc(/C=C(\NC(C)=O)C2=NC3C(=O)c4ccccc4C(=O)C3N2)cc1)C1=NC2C(=O)c3ccccc3C(=O)C2N1 (stereo not given) : > 100 µM

----------
system: SF-295 CNS; experiment: NCI tumour cell line growth inhibition, 48 h
quantity: GI50

Past entries and their recorded results:
>>> print(df.to_string())
                                   compound  testedsystem  endpointresult
0             O=C(NNC(=S)Nc1ccccc1)c1ccccn1    SF-295 CNS         1970 nM
1  Cc1ccc(C2CC(c3cccc(Nc4ccncc4)c3)=NN2c2ccccc2)cc1 (centres undefined)    SF-295 CNS         1760 nM
2  O=C(NN1C(=O)CSC12CCCC2)C(O)c1ccccc1 (centres undefined)    SF-295 CNS     > 100000 nM
3  O=C(Nc1ccc2c(c1)OCO2)C(=O)c1c[nH]c2cc(F)ccc12    SF-295 CNS         2190 nM
4  O=S(=O)(Nc1ccc2ccccc2c1)c1ccc(-c2cnc(C3CC3)o2)cc1    SF-295 CNS          452 nM
5  O=C(Nc1cccc(Cl)c1)c1cc(N=Nc2ccc([N+](=O)[O-])cc2Cl)ccc1O    SF-295 CNS         1490 nM

Documented GI50 of `COc1cc2ncn(-c3cc(OCc4ccccc4C(F)(F)F)c(C(C)=O)s3)c2cc1OC` : > 25000 nM

Documented GI50 of `CCOC(=O)c1cc(-c2ccc(OC)c(OC)c2)[nH]c1N/N=C/c1c(Cl)cccc1Cl` : 461 nM
